Origin of values: patent US20240226178A1

System: RUES2 hESC-CMs wild-type
ASSAY DETAILS: MEA dose-response of compounds on spontaneous electrical activity of hESC-CMs
Type: cell-based, human
CONDITION DETAILS: RUES2 hESC-CMs wild-type on MEA, increasing doses vs DMSO control
RECORDED METRIC: beating frequency / beat rate (effect in words)

> print(dat)
                                   molecule            assayed.target      reported.measurement
1  N=C(N)SCCc1ccc(OCc2ccc([N+](=O)[O-])cc2)cc1 [KB-R3702]  RUES2 hESC-CMs wild-type  dose-dependent reduction
2  CCOc1ccc(Oc2ccc(OCc3cc(F)ccc3F)cc2)c(N)c1 [SEA0400]  RUES2 hESC-CMs wild-type  dose-dependent reduction
